- Test system: ICR strain mice
- experiment_description: Pulmonary toxicity (pulmonary fibrosis) in mice, intraperitoneal injection
- Format: in vivo
- condition_parameters: 5 mg/kg i.p. once a day for 10 days; autopsy after 5 weeks; score 0-6 points
test_readout: Grade: total score of pulmonary fibrosis/total number of test animal

Please report the recorded Grade: total score of pulmonary fibrosis/total number of test animal for CCCC[N+](CCCC)(CCCNC(=O)c1csc(-c2csc(CCNC(=O)C(NC(=O)C(C)C(O)C(C)NC(=O)C(NC(=O)c3nc(C(CC(N)=O)NCC(N)C(N)=O)nc(N)c3C)C(OC3OC(CO)C(O)C(O)C3OC3OC(CO)C(O)C(OC(N)=O)C3O)c3cnc[nH]3)C(C)O)n2)n1)CCCN(Cc1ccccc1)Cc1ccccc1 (centres unmarked) [compound 38] .
0/27

Please report the recorded Grade: total score of pulmonary fibrosis/total number of test animal for Cc1c(N)nc(C(CC(N)=O)NCC(N)C(N)=O)nc1C(=O)NC(C(=O)NC(C)C(O)C(C)C(=O)NC(C(=O)NCCc1nc(-c2nc(C(=O)NCCCN(C)CCCNCC(c3ccccc3)c3ccccc3)cs2)cs1)C(C)O)C(OC1OC(CO)C(O)C(O)C1OC1OC(CO)C(O)C(OC(N)=O)C1O)c1cnc[nH]1 (centres unmarked) [compound 17] .
1/15

---

- System: ICR strain mice
- experiment_description: Pulmonary toxicity (pulmonary fibrosis) in mice, intraperitoneal injection
- Type: in vivo
- condition_parameters: 5 mg/kg i.p. once a day for 10 days; autopsy after 5 weeks; affected/total mice
- Method: (3) Pulmonary toxicity (pulmonary fibrosis) in mice. ICR strain mice (male; 15 weeks old; 9 mice per group) were used. Each mouse was administered with a daily dose of 5 mg/kg of the test sample by intraperitoneal injection, once a day, for 10 consecutive days. After completion of the predetermined administration, the mice were kept for 5 weeks under observation, then slaughtered, and autopsied to examine the incidence and grade of pulmonary fibrosis. […]
test_readout: Incidence: number of mice suffering from pulmonary fibrosis

Please report the recorded Incidence: number of mice suffering from pulmonary fibrosis for Cc1c(N)nc(C(CC(N)=O)NCC(N)C(N)=O)nc1C(=O)NC(C(=O)NC(C)C(O)C(C)C(=O)NC(C(=O)NCCc1nc(-c2nc(C(=O)NCCCN(C)CCCN(Cc3ccc(OCc4ccc(OCc5ccccc5)cc4)cc3)Cc3ccc(OCc4ccc(OCc5ccccc5)cc4)cc3)cs2)cs1)C(C)O)C(OC1OC(CO)C(O)C(O)C1OC1OC(CO)C(O)C(OC(N)=O)C1O)c1cnc[nH]1 (centres unmarked) .
0/9

Please report the recorded Incidence: number of mice suffering from pulmonary fibrosis for COc1ccc(CNCCCN(C)CCCNC(=O)c2csc(-c3csc(CCNC(=O)C(NC(=O)C(C)C(O)C(C)NC(=O)C(NC(=O)c4nc(C(CC(N)=O)NCC(N)C(N)=O)nc(N)c4C)C(OC4OC(CO)C(O)C(O)C4OC4OC(CO)C(O)C(OC(N)=O)C4O)c4cnc[nH]4)C(C)O)n3)n2)c(OC)c1 (centres unmarked) .
2/6

---

- Test system: ICR strain mice
- experiment_description: Pulmonary toxicity (pulmonary fibrosis) in mice, intraperitoneal injection
- Format: in vivo
- condition_parameters: 5 mg/kg i.p. once a day for 10 days; autopsy after 5 weeks; score 0-6 points
Would you mind telling me the reported Grade: total score of pulmonary fibrosis/total number of test animal of each entry?

Please report the recorded Grade: total score of pulmonary fibrosis/total number of test animal for Cc1c(N)nc(C(CC(N)=O)NCC(N)C(N)=O)nc1C(=O)NC(C(=O)NC(C)C(O)C(C)C(=O)NC(C(=O)NCCc1nc(-c2nc(C(=O)NCCCN(C)CCCNCc3ccc(C#N)cc3)cs2)cs1)C(C)O)C(OC1OC(CO)C(O)C(O)C1OC1OC(CO)C(O)C(OC(N)=O)C1O)c1cnc[nH]1 (stereo not drawn) [compound 18] .
0/27

Please report the recorded Grade: total score of pulmonary fibrosis/total number of test animal for Cc1c(N)nc(C(CC(N)=O)NCC(N)C(N)=O)nc1C(=O)NC(C(=O)NC(C)C(O)C(C)C(=O)NC(C(=O)NCCc1nc(-c2nc(C(=O)NCCCN3CCN(CCCN(Cc4ccccc4)Cc4ccccc4)CC3)cs2)cs1)C(C)O)C(OC1OC(CO)C(O)C(O)C1OC1OC(CO)C(O)C(OC(N)=O)C1O)c1cnc[nH]1 (stereo not drawn) [Compound No. 43] .
0/27

Please report the recorded Grade: total score of pulmonary fibrosis/total number of test animal for Cc1c(N)nc(C(CC(N)=O)NCC(N)C(N)=O)nc1C(=O)NC(C(=O)NC(C)C(O)C(C)C(=O)NC(C(=O)NCCc1nc(-c2nc(C(=O)NCCCN(C)CCCN(Cc3ccc(OCC4CCCCCCC4)cc3)Cc3ccc(OCC4CCCCCCC4)cc3)cs2)cs1)C(C)O)C(OC1OC(CO)C(O)C(O)C1OC1OC(CO)C(O)C(OC(N)=O)C1O)c1cnc[nH]1 (stereo not drawn) [compound 52] .
0/27
